system: Tetranychus urticae; assay: Tetranychus urticae spray test, OP-resistant; assay type: in vivo; details: 500 g/ha, after 6 days, spider mites killed
Please provide measured efficacy in % for the entries that follow.
Numbers only, in %.

- structure_notation: "CCS(=O)(=O)c1ccc(N)nc1-c1nc2cc(C(F)(F)C(F)(F)F)ncc2n1C"
  reading: 100
- structure_notation: "CCS(=O)(=O)c1ccc(NS(=O)(=O)C(F)(F)F)nc1-c1nc2cc(C(F)(F)F)ncc2n1C"
  reading: 90
- structure_notation: "CCS(=O)(=O)c1ccc(C(=O)NC)nc1-c1nc2cc(C(F)(F)F)ncc2n1C"
  reading: 100
- structure_notation: "CCNc1ccc(S(=O)(=O)CC)c(-c2nc3cc(C(F)(F)F)ncc3n2C)n1"
  reading: 90

# input Please provide the recorded efficacy in % for CCS(=O)(=O)c1ccc(NC(C)=O)nc1-c1nc2cc(C(F)(F)C(F)(F)F)ncc2n1C , tested on Tetranychus urticae.
# output 90
